The measured values listed here are drawn from the supplement of paper PMC7877785.

# test: self-splicing fitness, log relative to wild type (ln ratio); higher = more splicing; Tetrahymena group I intron in knt gene, E. coli kanamycin selection, DiMSum; sequences stand for … in CUCUCU…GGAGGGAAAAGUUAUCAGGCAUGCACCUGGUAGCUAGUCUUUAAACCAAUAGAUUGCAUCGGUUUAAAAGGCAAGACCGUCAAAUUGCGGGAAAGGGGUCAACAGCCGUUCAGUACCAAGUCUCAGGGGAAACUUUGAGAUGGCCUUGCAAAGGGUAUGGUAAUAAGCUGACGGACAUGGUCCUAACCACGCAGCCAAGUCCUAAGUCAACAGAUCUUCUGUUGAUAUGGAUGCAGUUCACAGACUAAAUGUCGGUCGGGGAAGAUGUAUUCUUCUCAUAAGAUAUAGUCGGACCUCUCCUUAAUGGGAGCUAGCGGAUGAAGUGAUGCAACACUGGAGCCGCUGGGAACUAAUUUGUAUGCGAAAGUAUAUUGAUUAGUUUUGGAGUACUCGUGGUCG;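 note: selection with 25 µg/mL kanamycin versus none on LB agar overnight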
# assay_context: 30 °C
Decide by self-splicing fitness (ln): equal to or exceeding -2 means Criterion met, less means Criterion not met.

## Input Threshold query (self-splicing fitness (ln) >= -2) on UAGCAGCAAUAUUACGUGGU
## Output Criterion not met

## Input Threshold query (self-splicing fitness (ln) >= -2) on CCCCAGCAAUAUUACGGUUU
## Output Criterion not met

## Input Threshold query (self-splicing fitness (ln) >= -2) on UGACAGCAAUAUUACGGAUA
## Output Criterion met

## Input Threshold query (self-splicing fitness (ln) >= -2) on AACCAGCAAUAUUACGACAG
## Output Criterion not met

## Input Threshold query (self-splicing fitness (ln) >= -2) on UGUGAGCAAUAUUACGAUGU
## Output Criterion not met

## Input Threshold query (self-splicing fitness (ln) >= -2) on CAAUAGCAAUAUUACGGAAC
## Output Criterion not met

## Input Threshold query (self-splicing fitness (ln) >= -2) on AAGAAGCAAUAUUACGUCGA
## Output Criterion met

## Input Threshold query (self-splicing fitness (ln) >= -2) on AAGAAGCAAUAUUACGCUUU
## Output Criterion not met

## Input Threshold query (self-splicing fitness (ln) >= -2) on GCCGAGCAAUAUUACGAGUA
## Output Criterion not met

## Input Threshold query (self-splicing fitness (ln) >= -2) on UAGCAGCAAUAUUACGGGGA
## Output Criterion not met

## Input Threshold query (self-splicing fitness (ln) >= -2) on AGGGAGCAAUAUUACGGGCU
## Output Criterion not met

## Input Threshold query (self-splicing fitness (ln) >= -2) on AACCAGCAAUAUUACGAUAA
## Output Criterion met

## Input Threshold query (self-splicing fitness (ln) >= -2) on CACUAGCAAUAUUACGACUC
## Output Criterion met

## Input Threshold query (self-splicing fitness (ln) >= -2) on UAGCAGCAAUAUUACGCGGA
## Output Criterion met

## Input Threshold query (self-splicing fitness (ln) >= -2) on AUGCAGCAAUAUUACGGGAC
## Output Criterion not met

## Input Threshold query (self-splicing fitness (ln) >= -2) on CCCAAGCAAUAUUACGACAU
## Output Criterion not met

## Input Threshold query (self-splicing fitness (ln) >= -2) on ACUGAGCAAUAUUACGGCUG
## Output Criterion met

## Input Threshold query (self-splicing fitness (ln) >= -2) on AUUGAGCAAUAUUACGCGCC
## Output Criterion met

## Input Threshold query (self-splicing fitness (ln) >= -2) on GGUGAGCAAUAUUACGGCGC
## Output Criterion met

## Input Threshold query (self-splicing fitness (ln) >= -2) on CUGUAGCAAUAUUACGAUAU
## Output Criterion not met

## Input Threshold query (self-splicing fitness (ln) >= -2) on UGUUAGCAAUAUUACGUCAA
## Output Criterion met

## Input Threshold query (self-splicing fitness (ln) >= -2) on GACUAGCAAUAUUACGUUGG
## Output Criterion not met

## Input Threshold query (self-splicing fitness (ln) >= -2) on UGUUAGCAAUAUUACGAGUU
## Output Criterion not met

## Input Threshold query (self-splicing fitness (ln) >= -2) on UUCUAGCAAUAUUACGUCGG
## Output Criterion not met

## Input Threshold query (self-splicing fitness (ln) >= -2) on CGACAGCAAUAUUACGGCCG
## Output Criterion not met

## Input Threshold query (self-splicing fitness (ln) >= -2) on UCGGAGCAAUAUUACGAUAC
## Output Criterion not met
